I'd appreciate it if you could supply pKd values for the items below.
# measured_target: Gal-1 (Homo sapiens)
# Construct: made in house; host or cells: E. coli BL21(DE3)
# Sequence (P09382 whole entry): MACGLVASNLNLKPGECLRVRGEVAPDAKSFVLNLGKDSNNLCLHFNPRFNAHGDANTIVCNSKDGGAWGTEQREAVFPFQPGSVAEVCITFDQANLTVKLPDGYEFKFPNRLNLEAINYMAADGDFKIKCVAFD
# assay_method_text: Competition pull-down with lactose
# Type: binding
# condition_label: H14 library; lactose 10 mM; read-out: Surface mapping KD (apparent), competition
API: returns pKd as number; meaning -log10 of concentration in mol/L.

query: Specify pKd for "NC(=O)[C@H]1CCCC[C@@H]1NC(=O)C[C@H](Cc1c[nH]c2ccccc12)NC(=O)[C@H]1CCCC[C@@H]1NC(=O)[C@H]1CCCC[C@@H]1NC(=O)C[C@H](CO)NC(=O)[C@H]1CCCC[C@@H]1N" and stop.
result: 3.75

query: Consider the compound "N=C(N)NCCC[C@@H](CC(=O)N[C@H]1CCCC[C@@H]1C(N)=O)NC(=O)[C@H]1CCCC[C@@H]1NC(=O)[C@H]1CCCC[C@@H]1NC(=O)C[C@H](CCCCN)NC(=O)[C@H]1CCCC[C@@H]1N" and give its recorded pKd.
result: 3.49

query: Note pKd for the compound shown: "CC(C)[C@@H](CC(=O)N[C@H]1CCCC[C@@H]1C(N)=O)NC(=O)[C@H]1CCCC[C@@H]1NC(=O)[C@H]1CCCC[C@@H]1NC(=O)C[C@H](CCC(N)=O)NC(=O)[C@H]1CCCC[C@@H]1N"
result: 3.43

query: Supply pKd value. Item: "CC(C)C[C@@H](CC(=O)N[C@H]1CCCC[C@@H]1C(N)=O)NC(=O)[C@H]1CCCC[C@@H]1NC(=O)[C@H]1CCCC[C@@H]1NC(=O)C[C@H](Cc1c[nH]c2ccccc12)NC(=O)[C@H]1CCCC[C@@H]1N"
result: 3.98

query: Quick one: give measured pKd for "NC(=O)CC[C@@H](CC(=O)N[C@H]1CCCC[C@@H]1C(=O)N[C@H]1CCCC[C@@H]1C(=O)N[C@H](CC(=O)N[C@H]1CCCC[C@@H]1C(N)=O)Cc1ccc(O)cc1)NC(=O)[C@H]1CCCC[C@@H]1N"
result: 3.46

----------
# measured_target: RecQ-WH (Escherichia coli, UniProt P15043)
# Construct: coding for residues 408– 523 of E. coli RecQ; made in house; host or cells: E. coli BL21(DE3)
# Sequence (P15043 408-523): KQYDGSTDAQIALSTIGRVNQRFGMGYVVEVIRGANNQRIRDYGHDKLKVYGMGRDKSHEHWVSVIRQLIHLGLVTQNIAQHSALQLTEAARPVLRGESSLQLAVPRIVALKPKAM
# assay_method_text: Pull-down assay with immobilized protein and LSM libraries
# Parameters: species or system E. coli
# condition_label: H12 library; 1:1 binding assumed; read-out: Surface mapping KD (apparent)
# Description: Pull-down assays with immobilized test proteins and foldameric LSM libraries were carried out. Proteins were equilibrated with LSM probes, and equilibrium bound fractions (FB) were determined from the unbound fractions measured by HPLC-MS methods. Hits were corrected with background binding of the resin. […] MS data analysis. […] Using these processing setups, all raw data files were reprocessed together and analyzed. […]
measured_endpoint: Kd (µM)
Form entry: value (µM) — number only.

query: Look up Kd of NCCCC[C@@H](CC(=O)N[C@H]1CCC[C@@H]1C(=O)N[C@H]1CCC[C@@H]1C(N)=O)NC(=O)[C@H]1CCC[C@@H]1NC(=O)[C@H]1CCC[C@@H]1NC(=O)C[C@H](Cc1ccc(O)cc1)NC(=O)[C@H]1CCC[C@@H]1NC(=O)[C@H]1CCC[C@@H]1N [H12 YK] and report it.
result: 280

query: Respond only with Kd recorded for N=C(N)NCCC[C@@H](CC(=O)N[C@H]1CCC[C@@H]1C(=O)N[C@H]1CCC[C@@H]1C(N)=O)NC(=O)[C@H]1CCC[C@@H]1NC(=O)[C@H]1CCC[C@@H]1NC(=O)C[C@H](Cc1ccccc1)NC(=O)[C@H]1CCC[C@@H]1NC(=O)[C@H]1CCC[C@@H]1N [H12 FR]
result: 388

----------
I'd appreciate it if you could supply pKd values for the items below.
# measured_target: S100B (Homo sapiens, UniProt P04271)
# Construct: made in house; host or cells: Escherichia coli BL21(DE3)
# Sequence (P04271 whole entry): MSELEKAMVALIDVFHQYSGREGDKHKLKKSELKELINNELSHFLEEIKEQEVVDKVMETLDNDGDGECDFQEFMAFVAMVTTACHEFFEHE
# assay_method_text: Competition pull-down with native ligand RSK1 (689–735)
# Assay type: binding
# condition_label: H14 library; competitor peptide 200 µM; read-out: Surface mapping KD (apparent), competition
In plain terms, pKd is the concentration in mol/L turned into minus its base-10 logarithm.

query: Output reported pKd of the molecule CSCC[C@@H](CC(=O)N[C@H]1CCCC[C@@H]1C(N)=O)NC(=O)[C@H]1CCCC[C@@H]1NC(=O)[C@H]1CCCC[C@@H]1NC(=O)C[C@H](CCSC)NC(=O)[C@H]1CCCC[C@@H]1N [H14 MM] on S100B (Homo sapiens, UniProt P04271).
result: 3.56

query: Given CC[C@H](C)[C@@H](CC(=O)N[C@H]1CCCC[C@@H]1C(=O)N[C@H]1CCCC[C@@H]1C(=O)N[C@@H](CCCCN)CC(=O)N[C@H]1CCCC[C@@H]1C(N)=O)NC(=O)[C@H]1CCCC[C@@H]1N [H14 IK] , report its pKd on S100B (Homo sapiens, UniProt P04271).
result: 3.67

query: Please tell me the measured pKd for CSCC[C@@H](CC(=O)N[C@H]1CCCC[C@@H]1C(N)=O)NC(=O)[C@H]1CCCC[C@@H]1NC(=O)[C@H]1CCCC[C@@H]1NC(=O)C[C@H](CC(=O)O)NC(=O)[C@H]1CCCC[C@@H]1N [H14 DM] ; system: S100B (Homo sapiens, UniProt P04271).
result: 3.80

query: Send back S100B (Homo sapiens, UniProt P04271) pKd of C[C@@H](CC(=O)N[C@H]1CCCC[C@@H]1C(=O)N[C@H]1CCCC[C@@H]1C(=O)N[C@H](CC(=O)N[C@H]1CCCC[C@@H]1C(N)=O)Cc1c[nH]c2ccccc12)NC(=O)[C@H]1CCCC[C@@H]1N [H14 AW] only.
result: 3.90

query: Please respond with reported pKd (system S100B (Homo sapiens, UniProt P04271)) for CSCC[C@@H](CC(=O)N[C@H]1CCCC[C@@H]1C(N)=O)NC(=O)[C@H]1CCCC[C@@H]1NC(=O)[C@H]1CCCC[C@@H]1NC(=O)C[C@H](CCCCN)NC(=O)[C@H]1CCCC[C@@H]1N [H14 KM] .
result: 3.85

query: Report the value of pKd obtained on S100B (Homo sapiens, UniProt P04271) for NC(=O)C[C@@H](CC(=O)N[C@H]1CCCC[C@@H]1C(N)=O)NC(=O)[C@H]1CCCC[C@@H]1NC(=O)[C@H]1CCCC[C@@H]1NC(=O)C[C@H](CC(N)=O)NC(=O)[C@H]1CCCC[C@@H]1N [H14 NN] .
result: 3.92

query: Report pKd on S100B (Homo sapiens, UniProt P04271) for this entry: C[C@@H](O)[C@@H](CC(=O)N[C@H]1CCCC[C@@H]1C(=O)N[C@H]1CCCC[C@@H]1C(=O)N[C@H](CC(=O)N[C@H]1CCCC[C@@H]1C(N)=O)Cc1c[nH]c2ccccc12)NC(=O)[C@H]1CCCC[C@@H]1N [H14 TW]
result: 3.59

query: // fetch pKd for NC(=O)[C@H]1CCCC[C@@H]1NC(=O)C[C@H](Cc1c[nH]c2ccccc12)NC(=O)[C@H]1CCCC[C@@H]1NC(=O)[C@H]1CCCC[C@@H]1NC(=O)C[C@H](Cc1ccc(O)cc1)NC(=O)[C@H]1CCCC[C@@H]1N [H14 YW] ; system: S100B (Homo sapiens, UniProt P04271)
result: 4.42

query: Look up and report measured pKd (S100B (Homo sapiens, UniProt P04271)) for the following molecule: CC[C@H](C)[C@@H](CC(=O)N[C@H]1CCCC[C@@H]1C(=O)N[C@H]1CCCC[C@@H]1C(=O)N[C@@H](CC(N)=O)CC(=O)N[C@H]1CCCC[C@@H]1C(N)=O)NC(=O)[C@H]1CCCC[C@@H]1N [H14 IN]
result: 3.49

query: # return pKd for CC(C)[C@@H](CC(=O)N[C@H]1CCCC[C@@H]1C(=O)N[C@H]1CCCC[C@@H]1C(=O)N[C@H](CC(=O)N[C@H]1CCCC[C@@H]1C(N)=O)[C@@H](C)O)NC(=O)[C@H]1CCCC[C@@H]1N [H14 VT] , test system: S100B (Homo sapiens, UniProt P04271)
result: 3.32

query: With S100B (Homo sapiens, UniProt P04271) as the test system, provide measured pKd for this molecule: C[C@@H](O)[C@@H](CC(=O)N[C@H]1CCCC[C@@H]1C(=O)N[C@H]1CCCC[C@@H]1C(=O)N[C@@H](CC(N)=O)CC(=O)N[C@H]1CCCC[C@@H]1C(N)=O)NC(=O)[C@H]1CCCC[C@@H]1N [H14 TN]
result: 3.35

query: Fill in pKd for CC(C)C[C@@H](CC(=O)N[C@H]1CCCC[C@@H]1C(=O)N[C@H]1CCCC[C@@H]1C(=O)N[C@@H](CCCCN)CC(=O)N[C@H]1CCCC[C@@H]1C(N)=O)NC(=O)[C@H]1CCCC[C@@H]1N [H14 LK] tested with S100B (Homo sapiens, UniProt P04271).
result: 3.50

query: Enter recorded pKd with S100B (Homo sapiens, UniProt P04271) for NC(=O)CC[C@@H](CC(=O)N[C@H]1CCCC[C@@H]1C(=O)N[C@H]1CCCC[C@@H]1C(=O)N[C@H](CC(=O)N[C@H]1CCCC[C@@H]1C(N)=O)Cc1ccc(O)cc1)NC(=O)[C@H]1CCCC[C@@H]1N [H14 QY] here.
result: 3.73

query: Give S100B (Homo sapiens, UniProt P04271) pKd for the following molecule: C[C@@H](O)[C@@H](CC(=O)N[C@H]1CCCC[C@@H]1C(=O)N[C@H]1CCCC[C@@H]1C(=O)N[C@H](CC(=O)N[C@H]1CCCC[C@@H]1C(N)=O)Cc1ccccc1)NC(=O)[C@H]1CCCC[C@@H]1N [H14 TF]
result: 3.53

query: State pKd on S100B (Homo sapiens, UniProt P04271). Entry: C[C@@H](CC(=O)N[C@H]1CCCC[C@@H]1C(N)=O)NC(=O)[C@H]1CCCC[C@@H]1NC(=O)[C@H]1CCCC[C@@H]1NC(=O)C[C@H](Cc1ccccc1)NC(=O)[C@H]1CCCC[C@@H]1N [H14 FA]
result: 3.48

query: Please look at CSCC[C@@H](CC(=O)N[C@H]1CCCC[C@@H]1C(=O)N[C@H]1CCCC[C@@H]1C(=O)N[C@H](CC(=O)N[C@H]1CCCC[C@@H]1C(N)=O)C(C)C)NC(=O)[C@H]1CCCC[C@@H]1N [H14 MV] and tell me its recorded pKd on S100B (Homo sapiens, UniProt P04271).
result: 3.44

query: // fetch pKd for CC[C@H](C)[C@@H](CC(=O)N[C@H]1CCCC[C@@H]1C(N)=O)NC(=O)[C@H]1CCCC[C@@H]1NC(=O)[C@H]1CCCC[C@@H]1NC(=O)C[C@@H](NC(=O)[C@H]1CCCC[C@@H]1N)C(C)C [H14 VI] ; system: S100B (Homo sapiens, UniProt P04271)
result: 3.74

query: With S100B (Homo sapiens, UniProt P04271) as the test system, provide measured pKd for this molecule: NC(=O)CC[C@@H](CC(=O)N[C@H]1CCCC[C@@H]1C(N)=O)NC(=O)[C@H]1CCCC[C@@H]1NC(=O)[C@H]1CCCC[C@@H]1NC(=O)C[C@H](Cc1ccc(O)cc1)NC(=O)[C@H]1CCCC[C@@H]1N [H14 YQ]
result: 3.35
